Assay: doxorubicin toxicity protection in MRP-1 cells – H69AR cells, CellTiter-Glo, duplicate, MRP-1 activator project, pilot screen (AID 807);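 note: compound pretreatment 18-22 h then 72 h combined with doxorubicin; 0% = doxorubicin alone and 100% = vehicle without doxorubicin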
Conditions: H69AR viability with doxorubicin, CellTiter-Glo luminescence; at 10 µM; hits give high values
measured_attribute: viability increase (%)
One number for each entry, in %.

Solved cases below.
compound	result_units	viability increase
Cc1ccc(-n2nc(C)c3c2NC(=O)CSC3c2ccc3c(c2)OCO3)cc1 (stereo unspecified)	%	0.35
CCOC(=O)C1CCN(/C=C2/C(=O)NC(=O)N(c3ccc(OCC)cc3)C2=O)CC1	%	1.62
O=C(O)C1CN2CCC1CC2 (stereo unspecified)	%	-0.31
COc1cc2c(cc1OC)C(C(=O)N1CCC3(CC1)OCCO3)C(c1ccccc1F)N(C)C2=O (stereo unspecified)	%	-3.17
C[C@H]1CCC[C@@H](O)CCC/C=C/c2cc(O)cc(O)c2C(=O)O1	%	-7.59

As a next step, examine the compound that follows.
Item: "O=C(O)c1cc2ccccc2oc1=O" | viability increase: -0.27

----------
Provide the reported inhibition of each item.
Target: Pantothenate synthetase (Mycobacterium tuberculosis (strain ATCC 25618 / H37Rv)) (UniProt P9WIL5)
Sequence (P9WIL5 whole entry, looked up): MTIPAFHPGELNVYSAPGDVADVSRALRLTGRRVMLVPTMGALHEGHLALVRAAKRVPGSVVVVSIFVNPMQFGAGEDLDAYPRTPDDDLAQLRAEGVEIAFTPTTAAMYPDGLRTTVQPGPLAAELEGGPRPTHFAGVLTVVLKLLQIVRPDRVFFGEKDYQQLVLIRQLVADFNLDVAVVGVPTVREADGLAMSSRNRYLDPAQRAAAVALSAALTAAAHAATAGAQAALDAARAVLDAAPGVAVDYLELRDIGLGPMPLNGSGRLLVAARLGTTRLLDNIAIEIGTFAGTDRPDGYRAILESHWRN
Assay: Coupled enzyme confirmation of inhibitors against recombinant Mtb PanC (AID 375);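 note: 0% = full reaction with vehicle and 100% = no enzyme background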
Conditions: coupled enzyme assay; at 10 µM, hits give high values
Numbers only, in %.

compound	inhibition (%)
Cn1c(SCC(=O)c2ccc(-c3ccccc3)cc2)nnc1-c1ccco1	2
COC(=O)Cn1c2c(c3cc(C)ccc31)CCCC2	1
CC(C)CNS(=O)(=O)c1ccc(OCC(=O)Nc2ccc3c(c2)OCO3)c(Cl)c1	6

I have 8 compounds here; please give me inhibition for each one.
1. CN(C)S(=O)(=O)c1ccc(S(=O)(=O)Nc2ccc3c(c2)oc2ccccc23)cc1
2. Cc1ccc(Nc2cc(C)nc3ncnn23)c(Cl)c1
3. Cc1csc(NC(=O)c2cccc(S(=O)(=O)N3CCCCC3)c2)n1
4. Cc1ccc(-c2cc(C(F)F)nc(NCC3CCCO3)n2)cc1 (stereo unspecified)
5. CC[N+]1(C)CCCC(OC(=O)C(O)(c2ccccc2)c2ccccc2)C1 (stereo unspecified)
6. Cn1c(=O)c2c(ncn2CCO)n(C)c1=O
7. COC(=O)c1ccc(Oc2nc(NC(C)C)nc(N(C)C)n2)cc1
8. CN(C)CCCN1C(=O)c2oc3ccccc3c(=O)c2C1c1cccs1 (stereo unspecified)

## Result
1: 0; 2: 0; 3: 0; 4: 3; 5: 0; 6: 1; 7: 1; 8: 0

Give me inhibition for each of these compounds, listed below.
1. CCOC(=O)c1cc(-c2ccc(N)cc2)sc1N
2. Cc1cccc2cc(C(c3nnnn3C(C)(C)C)N3CCN(C(=O)c4ccco4)CC3)c(=O)[nH]c12 (stereo unspecified)
3. CCCCCC(=O)N1CC2(C)CN(C(=O)CCCCC)CC(C)(C1)C2=O
4. Cc1c(C(=O)NCc2ccoc2)oc2ccc3c(c12)C(=O)CC(C)(C)O3
5. Nc1nc(SCCOc2ccccc2)n[nH]1
6. CCOP(=O)(c1ccc(N(C)C)cc1)C(O)c1cc(OC)c(OC)c(OC)c1 (stereo unspecified)

## Result
0
6
0
2
0
0

For each of the items listed, what is its inhibition?
1. CCN(CC)S(=O)(=O)c1ccc(NC(=O)Cn2cnc3ccccc3c2=O)cc1
2. OC[C@H]1O[C@@H](n2cnc3c(NC4CCCC4)ncnc32)[C@H](O)[C@@H]1O
3. COC(=O)C1C(=O)C2=C(CC1C)NC(=O)CC2c1ccccc1 (stereo unspecified)
4. COc1ccc(-c2nnc(SCC(=O)N3CCOCC3)o2)cc1OC
5. COc1ccc(C(C(C(=O)c2cccs2)N2CCOCC2)N2CCOCC2)cc1OC (stereo unspecified)
6. Cc1nc2cc(Cl)ccc2n1CCO
7. CCOC(=O)/C=C1\CC(=O)Nc2nonc2N1

## Result
[0, 1, 0, 0, 0, 2, 4]

Batch: inhibition for all items listed.
1. Brc1ccc(C2=Nn3c(nnc3-c3ccncc3)SC2)cc1
2. O=C(c1ccc(Br)o1)N(Cc1ccccc1)c1ccccn1
3. CCOC(=O)C1CCN(C(=O)C2(NC(=O)Nc3ccccc3Cl)CCCCC2)CC1
4. COc1ccc(C(=O)N(Cc2ccco2)C(C(=O)NC2CCCC2)c2ccc(O)cc2)cc1OC (stereo unspecified)
5. CCC1CCCCN1S(=O)(=O)c1ccc(C(=O)Nc2nnc(-c3cccs3)o2)cc1 (stereo unspecified)

## Result
1. 0
2. 3
3. 0
4. 0
5. 2

For the 8 compounds below, give their inhibition values.
1. Cc1ccc(S(=O)(=O)C2(C(=O)Nc3nccs3)CC2)cc1
2. Cc1ccc(-c2nn[nH]n2)cc1
3. CCc1ncc(C(O)c2cccc(OC)c2OC)n1C (stereo unspecified)
4. Cc1cccc(C)c1NC(=O)N1CCN(C2CCCCC2)CC1
5. COc1ccc(S(=O)(=O)N2CCCC(C(=O)NCc3ccccn3)C2)cc1 (stereo unspecified)
6. CCOC(=O)CSc1nnc([C@H](CC(C)C)NC(=O)OC(C)(C)C)o1
7. O=C(Nc1cc(C(F)(F)F)ccc1N1CCCC1)c1ccc2c(c1)OCO2
8. CCOC(=O)N1CCC(NC(=O)c2ccc3nc(N4CCOCC4)sc3c2)CC1

## Result
[0, 0, 0, 0, 7, 2, 2, 5]

Quick one: give me inhibition for each item below, same order please.
1. C/C(=C\c1ccco1)C1C(C#N)=C(N)OC2=C1C(=O)CC(C)(C)C2 (stereo unspecified)
2. COc1cc(OC)cc(C(=O)N2CCN(C(=O)c3ccc(OC)c(OC)c3)CC2)c1
3. Cc1cccc(-n2ncc3c(N4CCC5(CC4)OCCO5)ncnc32)c1
4. O=C(NCc1ccco1)C1CC(=O)N(c2ccc(F)cc2)C1 (stereo unspecified)
5. CCCC(=O)OCC[N+](C)(C)C

## Result
1. 12
2. 1
3. 7
4. 4
5. 0

Below are 4 compounds. Give each one its inhibition.
1. COC(=O)c1oc2ccc(Br)cc2c1NC(=O)CN1CCN(C)CC1
2. O=C(NCCN1C(=O)C2C3C=CC(C3)C2C1=O)N1CCOCC1 (stereo unspecified)
3. Nc1nnc(-c2ccccc2)c(-c2ccccc2)n1
4. Cc1ccccc1OCc1nnc(SCC(=O)NCc2ccccc2)n1C

## Result
5
0
0
0

----------
Test: MRP1 drug-resistance reversers in H69AR cells – cell-based, doxorubicin co-treatment, pilot screen (AID 601)
Settings: H69AR cells + 2 uM doxorubicin, CellTiter-Glo, 72 h; at 10 µM; hits give high values
I'd be grateful if you could share measured differential viability (reversal) for these entries.
Answers are plain numbers, in %.

Hi! Can you tell me differential viability (reversal) for each of these compounds?
1. CCOc1cc2[nH]c(=S)n(CCCC(=O)N3CCC4(CC3)OCCO4)c(=O)c2cc1OCC
2. C[C@H]1OC[C@@H](C[N+](C)(C)C)O1
3. Cc1cc(NC(=O)COC(=O)c2c(C)nn(Cc3ccccc3)c2Cl)no1

## Result
1. -4
2. 7.41
3. 19

Go through the list and state differential viability (reversal) for each entry.
1. COC(=O)CC1(Cc2ccccc2)C(=O)NC(=O)NC1=O
2. Cc1cc(N2C(=O)C3CCCN3C2c2cccc(Cl)c2)no1 (configuration not stated)
3. Cc1c2ccncc2c(C)c2c1[nH]c1ccccc12
4. COP(=O)(OC)C(O)C(Cl)(Cl)Cl (configuration not stated)
5. C[C@H]1CCCC(=O)CCC/C=C/c2cc(O)cc(O)c2C(=O)O1

## Result
13.1
21
0.18
-3.13
-57.4

----------
Test: MRP1 drug-resistance reversers in H69AR cells – cell-based, doxorubicin co-treatment, pilot screen (AID 601)
Settings: H69AR cells + 2 uM doxorubicin, CellTiter-Glo, 72 h; at 10 µM; hits give high values
measured_attribute: differential viability (reversal) (%)
Answers are plain numbers, in %.

Solved entries (count: 3):
molecule	measured_attribute	readout_value
OC(CNC1CCCCC1)c1ccccc1 (configuration not stated)	differential viability (reversal)	12.3
CCC(=NCC1CCCO1)c1c(O)n(Cc2ccccc2)c(=O)[nH]c1=O (configuration not stated)	differential viability (reversal)	-0.335
Cc1cc(C)c(C(=O)CN2CCOCC2)c(C)c1	differential viability (reversal)	-6.78

Would you be so kind as to report differential viability (reversal) for each listed record?
1. COc1ccccc1N1CCN(Cc2cccc(OC)c2O)CC1
2. CCCCN1C(=O)NC(=O)C2(Cc3c(nc4c(C)cccn4c3=O)N3CCc4ccccc4C32)C1=O (configuration not stated)
3. O=C(CCCOc1ccc(Cl)cc1Cl)N1CCC2(CC1)OCCO2
4. CCCCCCC(N)CC(=O)O (configuration not stated)

## Result
1. 5.07
2. -19.7
3. 11.1
4. 5.24

----------
Biological target: Pantothenate synthetase (Mycobacterium tuberculosis (strain ATCC 25618 / H37Rv)) (UniProt P9WIL5)
Assay: Coupled enzyme confirmation of inhibitors against recombinant Mtb PanC (AID 375);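 note: 0% = full reaction with vehicle and 100% = no enzyme background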
Conditions: coupled enzyme assay; at 10 µM, hits give high values
The threshold is inclusive: inhibition of exactly 2% counts as Yes; values below receive No.

Worked examples, 5 compounds total:
compound	group_label
Cn1c2ccccc2c2c(C(=O)NCCCN3CCCC3=O)cn(C3CCCCC3)c(=O)c21	Yes
COc1ccc(-c2nnc(SC(C)C(=O)Nc3nccs3)n2-c2ccccc2)cc1OC (stereo unspecified)	No
COc1cccc2c(=O)cc(C)n(CC(=O)Nc3ccc(C)c(C)c3)c12	No
COc1cccc(N2CCN(CC(=O)Nc3nnc(-c4ccccc4)s3)CC2)c1	Yes
COc1ccccc1-c1noc(-c2ccco2)n1	Yes

## Task # check: inhibition of CCCc1[nH]nc2c1C(c1cccc(OC(=O)c3ccco3)c1)C(C#N)=C(N)O2 (stereo unspecified) is greater than or equal to 2%
## Result No

## Task Does the compound COc1cc(NC2c3ccccc3C(=O)N2c2ccc(C)cn2)cc(OC)c1OC (stereo unspecified) have recorded inhibition that is 2% or more?
## Result No

## Task Is it the case that "CC(=O)Nc1ccc(S(=O)(=O)N2CCN(Cc3ccncc3)CC2)cc1" has inhibition reaching or exceeding 2%?
## Result Yes

## Task Say whether "COC(=O)c1ccc(NC(=O)CN2C(=O)CSC2=O)cc1" shows inhibition of 2% or more.
## Result Yes

## Task Quick check: does "O=S(=O)(c1ccccc1)N(Cc1nc(-c2ccccc2)no1)C1CCCCC1" have inhibition greater than or equal to 2%?
## Result No

## Task Kindly determine if inhibition recorded for "COc1ccccc1OCC(=O)N1CCNC1=O" is above or exactly 2%.
## Result No
